# Target or test system: ACC1 (Homo sapiens)
# Assay summary: In vitro ACC1 inhibition assay (ADP-Glo)
# Type: biochemical
# Conditions: read-out: ACC1
Each entry below carries its recorded IC50.

COc1ccccc1[C@H](Cn1c(=O)n(C(C)(C)C(=O)N2CCC2)c(=O)c2c(C)c(-c3ncco3)sc21)OC(C)C :: < 100 nM
COc1cc(Br)ccc1[C@H](Cn1c(=O)n(C(C)(C)C(=O)O)c(=O)c2c(C)c(-c3ncco3)sc21)OC1CCOCC1 :: < 5000 nM
COc1ccccc1[C@H](Cn1c(=O)n(C(C)(C)C(=O)O)c(=O)c2c(C)c(-c3ncco3)sc21)O[C@H]1CC[C@H](O)CC1 :: < 100 nM
Cc1c(-c2ncco2)sc2c1c(=O)n(C(C)(C)C(=O)O)c(=O)n2C[C@H](OC(C)C)c1ccccc1 :: < 100 nM
Cc1c(-c2ncco2)sc2c1c(=O)n(C(C)(C)C(=O)O)c(=O)n2C[C@H](OC1CCOCC1)c1ccccc1 :: < 100 nM
Cc1c(-c2ncco2)sc2c1c(=O)n(C(C)(C)C(=O)O)c(=O)n2C[C@H](OC1CCC(O)CC1)c1ccccc1 (stereo partly drawn) :: < 100 nM
COc1ccccc1[C@H](Cn1c(=O)n(C(C)(C)C(N)=O)c(=O)c2c(C)c(-c3ncco3)sc21)OCC1CCOCC1 :: < 100 nM
Cc1c(-c2ncco2)sc2c1c(=O)n(C(C)(C)C(N)=O)c(=O)n2C[C@H](OC1CCOCC1)c1ccccc1OC(C)C :: < 100 nM
COc1ccccc1[C@H](Cn1c(=O)n(C(C)(C)C(=O)N2CCOCC2)c(=O)c2c(C)c(-c3ncco3)sc21)OC(C)C :: < 100 nM
Cc1c(-c2ncco2)sc2c1c(=O)n(C(C)(C)C(N)=O)c(=O)n2C[C@H](OC1CCOCC1)c1ccccc1O :: < 100 nM

Then this compound:
Give me measured IC50, please, for this compound: "Cc1c(-c2ncco2)sc2c1c(=O)n(C(C)(C)C(=O)O)c(=O)n2C[C@@H](OC1CCOCC1)c1ccccc1CC#N"
< 100 nM

---

Each entry below carries its recorded pIC50.
# Target or test system: ACC2 (Homo sapiens, UniProt O00763)
# Sequence (O00763 whole entry, species assumed): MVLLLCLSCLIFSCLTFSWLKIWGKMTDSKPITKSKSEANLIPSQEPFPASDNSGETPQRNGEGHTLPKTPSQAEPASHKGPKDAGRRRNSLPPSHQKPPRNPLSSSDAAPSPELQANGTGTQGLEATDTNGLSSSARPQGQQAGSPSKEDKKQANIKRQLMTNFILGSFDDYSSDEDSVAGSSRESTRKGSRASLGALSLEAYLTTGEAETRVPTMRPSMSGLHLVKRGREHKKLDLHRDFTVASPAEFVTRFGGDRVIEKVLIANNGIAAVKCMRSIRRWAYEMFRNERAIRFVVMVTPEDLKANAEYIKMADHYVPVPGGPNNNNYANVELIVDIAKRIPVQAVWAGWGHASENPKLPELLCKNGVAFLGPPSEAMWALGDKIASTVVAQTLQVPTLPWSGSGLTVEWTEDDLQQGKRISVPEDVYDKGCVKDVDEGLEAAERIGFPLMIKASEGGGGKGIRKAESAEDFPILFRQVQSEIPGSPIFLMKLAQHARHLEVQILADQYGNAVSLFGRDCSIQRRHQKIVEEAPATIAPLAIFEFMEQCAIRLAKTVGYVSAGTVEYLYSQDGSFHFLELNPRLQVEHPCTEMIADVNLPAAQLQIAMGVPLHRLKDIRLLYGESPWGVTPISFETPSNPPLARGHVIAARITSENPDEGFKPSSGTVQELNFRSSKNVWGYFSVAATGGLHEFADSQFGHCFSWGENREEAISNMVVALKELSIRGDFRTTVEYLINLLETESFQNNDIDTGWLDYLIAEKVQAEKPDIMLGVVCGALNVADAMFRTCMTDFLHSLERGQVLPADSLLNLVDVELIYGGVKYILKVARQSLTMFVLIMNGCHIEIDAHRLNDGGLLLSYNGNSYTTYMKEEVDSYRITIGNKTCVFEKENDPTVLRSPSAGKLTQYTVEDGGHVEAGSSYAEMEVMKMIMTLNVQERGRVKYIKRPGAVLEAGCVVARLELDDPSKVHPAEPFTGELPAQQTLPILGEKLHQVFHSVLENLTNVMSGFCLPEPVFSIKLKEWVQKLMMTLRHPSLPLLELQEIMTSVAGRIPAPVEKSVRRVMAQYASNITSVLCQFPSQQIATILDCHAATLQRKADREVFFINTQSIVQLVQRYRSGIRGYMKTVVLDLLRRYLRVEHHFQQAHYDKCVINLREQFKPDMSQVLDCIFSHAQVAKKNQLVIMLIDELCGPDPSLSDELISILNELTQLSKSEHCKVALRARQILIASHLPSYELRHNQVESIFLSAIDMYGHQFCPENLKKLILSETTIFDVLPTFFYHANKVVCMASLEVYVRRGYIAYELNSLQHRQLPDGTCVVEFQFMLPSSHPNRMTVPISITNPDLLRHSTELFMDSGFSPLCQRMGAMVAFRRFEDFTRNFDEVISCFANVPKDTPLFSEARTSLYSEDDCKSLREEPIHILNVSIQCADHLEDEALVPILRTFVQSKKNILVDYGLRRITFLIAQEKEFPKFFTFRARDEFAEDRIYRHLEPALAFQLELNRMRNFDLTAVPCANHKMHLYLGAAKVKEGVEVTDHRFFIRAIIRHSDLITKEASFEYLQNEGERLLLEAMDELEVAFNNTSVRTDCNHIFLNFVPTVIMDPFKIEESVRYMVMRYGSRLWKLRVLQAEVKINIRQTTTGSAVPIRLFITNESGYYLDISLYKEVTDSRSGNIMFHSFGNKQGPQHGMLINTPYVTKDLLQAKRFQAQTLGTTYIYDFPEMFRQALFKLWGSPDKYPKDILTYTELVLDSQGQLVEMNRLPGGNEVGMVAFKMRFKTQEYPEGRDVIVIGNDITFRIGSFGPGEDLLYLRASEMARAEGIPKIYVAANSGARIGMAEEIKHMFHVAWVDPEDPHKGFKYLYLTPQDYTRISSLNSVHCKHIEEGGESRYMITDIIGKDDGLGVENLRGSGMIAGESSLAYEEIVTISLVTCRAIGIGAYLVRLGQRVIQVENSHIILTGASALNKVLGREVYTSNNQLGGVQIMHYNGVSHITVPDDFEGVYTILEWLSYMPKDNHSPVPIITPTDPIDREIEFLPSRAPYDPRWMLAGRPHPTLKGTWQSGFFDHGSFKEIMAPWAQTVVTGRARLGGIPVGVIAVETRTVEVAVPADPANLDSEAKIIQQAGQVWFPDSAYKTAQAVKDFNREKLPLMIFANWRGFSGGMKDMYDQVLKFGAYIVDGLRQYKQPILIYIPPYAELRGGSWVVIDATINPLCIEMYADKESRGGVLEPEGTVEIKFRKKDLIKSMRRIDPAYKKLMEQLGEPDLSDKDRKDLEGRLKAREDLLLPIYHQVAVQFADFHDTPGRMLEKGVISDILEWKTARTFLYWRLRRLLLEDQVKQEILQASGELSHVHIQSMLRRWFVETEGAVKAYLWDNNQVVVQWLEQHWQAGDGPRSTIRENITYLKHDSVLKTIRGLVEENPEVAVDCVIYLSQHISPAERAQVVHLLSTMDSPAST
# Assay summary: In vitro ACC2 inhibition assay (ADP-Glo)
# Format: biochemical
# Conditions: read-out: ACC2
pIC50: −log10 of the molar value.

Cc1c(-c2ncco2)sc2c1c(=O)n(CC(=O)O)c(=O)n2CCc1ccccc1 :: > 5.30

Give reported pIC50 for "CCCc1ccccc1CCn1c(=O)n(C(C)(C)C(N)=O)c(=O)c2c(C)c(-c3ncco3)sc21" (ACC2 (Homo sapiens, UniProt O00763))
> 6.00

Give reported pIC50 for "COc1ccccc1[C@H](Cn1c(=O)n(Cc2nnc[nH]2)c(=O)c2c(C)c(-c3ncco3)sc21)OC1CCOCC1" (ACC2 (Homo sapiens, UniProt O00763))
> 7.00

Give reported pIC50 for "CCOC(=O)c1sc2c(c1C)c(=O)n(CCO)c(=O)n2CCCc1ccccc1" (ACC2 (Homo sapiens, UniProt O00763))
< 4.30

Give reported pIC50 for "Cc1c(-c2ncco2)sc2c1c(=O)n(C(C)(C)C(=O)O)c(=O)n2C[C@H](O[C@H]1CCC[C@@H](O)C1)c1ccccc1" (ACC2 (Homo sapiens, UniProt O00763))
> 6.00

Give reported pIC50 for "Cc1c(-c2ncco2)sc2c1c(=O)n(CC#N)c(=O)n2C[C@H](OC(C)C)c1ccccc1" (ACC2 (Homo sapiens, UniProt O00763))
> 6.00

Give reported pIC50 for "Cc1c(-c2ncc(Cl)o2)sc2c1c(=O)n(C(C)(C)C(=O)O)c(=O)n2C[C@H](OC(C)C)c1ccccc1" (ACC2 (Homo sapiens, UniProt O00763))
> 5.30

Give reported pIC50 for "CCOC(=O)c1sc2c(c1C)c(=O)n(CCO)c(=O)n2Cc1ccc2ccccc2c1" (ACC2 (Homo sapiens, UniProt O00763))
< 4.30

Give reported pIC50 for "CCOC(=O)c1sc2c(c1C)c(=O)n(C(C)(C)C(N)=O)c(=O)n2C[C@H](OC(C)C)c1ccccc1" (ACC2 (Homo sapiens, UniProt O00763))
> 6.00

Give reported pIC50 for "CCOC(=O)c1sc2c(c1C)c(=O)n(CC(N)=O)c(=O)n2C[C@@H](OC(C)C)c1ccccc1" (ACC2 (Homo sapiens, UniProt O00763))
4.30 to 4.70

Give reported pIC50 for "Cc1c(-c2ncco2)sc2c1c(=O)n(C(C)(C)C(=O)O)c(=O)n2C[C@@H](OC1CCOCC1)c1ccccc1CC#N" (ACC2 (Homo sapiens, UniProt O00763))
> 7.00

Give reported pIC50 for "CCc1ccccc1CCn1c(=O)n(C(C)(C)C(N)=O)c(=O)c2c(C)c(-c3ncco3)sc21" (ACC2 (Homo sapiens, UniProt O00763))
> 6.00

Give reported pIC50 for "Cc1c(C2CC2)sc2c1c(=O)n(C(C)(C)C(=O)O)c(=O)n2CCc1ccccc1" (ACC2 (Homo sapiens, UniProt O00763))
4.30 to 4.70

Give reported pIC50 for "Cc1ccccc1[C@H](Cn1c(=O)n(C(C)(C)C(=O)O)c(=O)c2c(C)c(-c3ncco3)sc21)OC1CCOCC1" (ACC2 (Homo sapiens, UniProt O00763))
> 7.00

Give reported pIC50 for "O=c1c2ccsc2n(CCc2ccccc2)c(=O)n1CCO" (ACC2 (Homo sapiens, UniProt O00763))
< 4.30

Give reported pIC50 for "COC(=O)c1sc2c(c1C)c(=O)n(CCO)c(=O)n2CCc1ccccc1" (ACC2 (Homo sapiens, UniProt O00763))
4.70 to 5.30

Give reported pIC50 for "CCOC(=O)c1sc2c(c1C)c(=O)n(C(C)(C)C(=O)O)c(=O)n2CCc1ccccc1O" (ACC2 (Homo sapiens, UniProt O00763))
> 5.30

Attribution: patent US9453026B2
